System: A549 cells
Assay comment: Cell viability by MTT method in A549 cells
Format: cell-based
Parameters: concentration or dose not given beside the values
Setup conditions: 72 hours treatment
// reported Cell Viability (% inhibition) (A549) for each item listed

>  <Smiles string>
Cc1ccc(S(=O)(=O)N[C@@H](Cc2c[nH]c3ccccc23)C(=O)Nc2ccc(N3CCOCC3)nc2)cc1

>  <Cell Viability (% inhibition) (A549) [%]>
6.18

$$$$
>  <Smiles string>
CON(C)C(=O)[C@H](CC(C)C)NS(=O)(=O)c1ccc(C)cc1

>  <Cell Viability (% inhibition) (A549) [%]>
−5.00

$$$$
>  <Smiles string>
COc1ccc(-c2csc(NC(=O)[C@H](CNC(=O)c3cccnc3)NS(=O)(=O)c3ccc(C)cc3)n2)cc1

>  <Cell Viability (% inhibition) (A549) [%]>
47.63

$$$$
>  <Smiles string>
CSCC[C@H](NS(=O)(=O)c1ccc(C)cc1)C(=O)Nc1ccc(N2CCOCC2)cc1

>  <Cell Viability (% inhibition) (A549) [%]>
12.97

$$$$

###

System: A549 cells
Assay comment: Cell viability by MTT method in A549 cells
Assay type: cell-based
Design: concentration or dose not given beside the values
Setup conditions: 72 hours treatment
// reported Cell Viability (% inhibition) (A549) for each item listed

>  <Compound>
Cc1ccc(S(=O)(=O)N[C@@H](CCC(=O)Nc2ccc(C(C)(C)C)cc2)C(=O)Nc2ccc(N3CCOCC3)cc2)cc1 [Compound 175]

>  <Value unit>
%

>  <Cell Viability (% inhibition) (A549)>
28.4

$$$$
>  <Compound>
Cc1ccc(S(=O)(=O)N[C@H](C(=O)N2CCOCC2)C(C)C)cc1 [Compound 40]

>  <Value unit>
%

>  <Cell Viability (% inhibition) (A549)>
−5.41

$$$$
>  <Compound>
Cc1ccc(S(=O)(=O)N[C@@H](CC(C)C)C(=O)Nc2ccc(N3CCOCC3)nc2)cc1 [Compound 12]

>  <Value unit>
%

>  <Cell Viability (% inhibition) (A549)>
23.26

$$$$
>  <Compound>
O=C([C@H](Cc1c[nH]c2ccccc12)NS(=O)(=O)c1ccc(Br)cc1)n1ccc(-c2ccccc2)n1 [Compound 185]

>  <Value unit>
%

>  <Cell Viability (% inhibition) (A549)>
13.09

$$$$
>  <Compound>
Cc1ccc(S(=O)(=O)N[C@@H](Cc2c[nH]c3ccccc23)C(=O)NCCc2ccccc2)cc1 [Compound 188]

>  <Value unit>
%

>  <Cell Viability (% inhibition) (A549)>
53.90

$$$$
>  <Compound>
Cc1ccc(S(=O)(=O)N[C@H](Cc2c[nH]c3ccccc23)C(=O)Nc2ccc(N3CCOCC3)cc2)cc1 [Compound 76]

>  <Value unit>
%

>  <Cell Viability (% inhibition) (A549)>
63.47

$$$$
>  <Compound>
Cc1ccc(S(=O)(=O)N[C@@H](Cc2c[nH]c3ccccc23)C(=O)Nc2ccc(N3CCOCC3)cc2)c(C)c1 [Compound 72]

>  <Value unit>
%

>  <Cell Viability (% inhibition) (A549)>
73.73

$$$$

###

Test system: A549 cells
Assay comment: Cell viability by MTT method in A549 cells
Type: cell-based
Set-up: concentration or dose not given beside the values
Setup conditions: 72 hours treatment
Rule: Cell Viability (% inhibition) (A549) under 50% gives no, otherwise yes.

>  <Compound>
Cc1ccc(S(=O)(=O)NC2(C(=O)N3CCOCC3)CCCCC2)cc1 [Compound 156]

>  <System name>
A549 cells

>  <Label>
no

$$$$
>  <Compound>
Cc1ccc(S(=O)(=O)N[C@@H](CC(C)C)C(=O)Nc2ccc(N3CCOCC3)c(F)c2)cc1 [Compound 14]

>  <System name>
A549 cells

>  <Label>
no

$$$$
>  <Compound>
COc1ccc(-c2csc(NC(=O)[C@H](CNc3nc4ccccc4o3)NS(=O)(=O)c3ccc(C)cc3)n2)cc1 [Compound 229]

>  <System name>
A549 cells

>  <Label>
yes

$$$$
>  <Compound>
CC(C)C[C@H](NC(=O)Nc1ccccc1)C(=O)N1CCOCC1 [Compound 56]

>  <System name>
A549 cells

>  <Label>
no

$$$$
>  <Compound>
CC(C)C[C@H](NS(=O)(=O)c1ccc(F)cc1)C(=O)Nc1ccc(N2CCOCC2)cc1 [Compound 21]

>  <System name>
A549 cells

>  <Label>
no

$$$$
>  <Compound>
Cc1ccc(S(=O)(=O)N[C@@H](Cc2c[nH]c3ccccc23)C(=O)NC(C)C)cc1 [Compound 180]

>  <System name>
A549 cells

>  <Label>
no

$$$$
>  <Compound>
Cc1ccc(S(=O)(=O)N[C@@H](Cc2c[nH]c3ccccc23)C(=O)Nc2ccc(N3CCN(C(=O)OC(C)(C)C)CC3)cc2)cc1 [Compound 122]

>  <System name>
A549 cells

>  <Label>
yes

$$$$
>  <Compound>
Cc1ccc(S(=O)(=O)N[C@@H](CC(C)C)C(=O)N2CCC[C@@H]2CO)cc1 [Compound 6]

>  <System name>
A549 cells

>  <Label>
no

$$$$
>  <Compound>
O=C(Nc1ccccc1)N[C@@H](Cc1c[nH]c2ccccc12)C(=O)N1CCOCC1 [Compound 132]

>  <System name>
A549 cells

>  <Label>
no

$$$$
>  <Compound>
COC(=O)c1ccc(-c2csc(NC(=O)[C@H](Cc3c[nH]c4ccccc34)NS(=O)(=O)c3ccc(C)cc3)n2)cc1 [Compound 227]

>  <System name>
A549 cells

>  <Label>
yes

$$$$
>  <Compound>
Cc1ccc(S(=O)(=O)N[C@@H](CC(C)C)C(=O)Nc2ccc(N3CCS(=O)(=O)CC3)cc2)cc1 [Compound 15]

>  <System name>
A549 cells

>  <Label>
no

$$$$
>  <Compound>
Cc1ccc(S(=O)(=O)N[C@@H](Cc2c[nH]c3ccccc23)C(=O)NCCc2ccc(F)cc2)cc1 [Compound 207]

>  <System name>
A549 cells

>  <Label>
yes

$$$$
>  <Compound>
Cc1ccc(S(=O)(=O)N[C@H](C(=O)Nc2ccc(N3CCOCC3)cc2)C(C)C)cc1 [Compound 131]

>  <System name>
A549 cells

>  <Label>
no

$$$$
>  <Compound>
CC(C)NC(=O)[C@H](Cc1c[nH]c2ccccc12)NS(=O)(=O)c1ccc(Br)cc1 [Compound 181]

>  <System name>
A549 cells

>  <Label>
yes

$$$$
>  <Compound>
Cc1cnc(NC(=O)[C@H](Cc2c[nH]c3ccccc23)NS(=O)(=O)c2ccc(Br)cc2)s1 [Compound 110]

>  <System name>
A549 cells

>  <Label>
no

$$$$

###

Test system: A549 cells
Assay comment: Cell viability by MTT method in A549 cells
Assay type: cell-based
Design: concentration or dose not given beside the values
Setup conditions: 72 hours treatment
Property label: Cell Viability (% inhibition) (A549) (%)

>  <Compound>
Cc1ccc(S(=O)(=O)N[C@@H](CCCCNC(=O)c2ccc(C(F)(F)F)cn2)C(=O)Nc2ccc(N3CCOCC3)cc2)cc1

>  <Measured result>
86.68

$$$$
>  <Compound>
Cc1ccc(S(=O)(=O)N[C@@H](Cc2c[nH]c3ccccc23)C(=O)O)cc1

>  <Measured result>
1.59

$$$$
>  <Compound>
COc1ccc(-c2csc(NC(=O)[C@H](Cc3c[nH]c4ccc(F)cc34)NS(=O)(=O)c3ccc(Br)cc3)n2)cc1

>  <Measured result>
95.58

$$$$
>  <Compound>
Cc1ccc(S(=O)(=O)N[C@@H](CC(C)C)C(=O)Nc2ccc(N3CCN(C(=O)OC(C)(C)C)CC3)nc2)cc1

>  <Measured result>
73.5

$$$$
>  <Compound>
Cc1ccc(C(=O)N[C@@H](Cc2c[nH]c3ccccc23)C(=O)Nc2ccc(N3CCOCC3)cc2)cc1

>  <Measured result>
60.35

$$$$
>  <Compound>
CC(C)C[C@H](NC(=O)CCS(=O)(=O)c1ccccc1)C(=O)OCc1ccccc1 [Compound 54]

>  <Measured result>
84.05

$$$$
>  <Compound>
CCOC(=O)C(Cc1c[nH]c2ccc(C(=O)O)cc12)NS(=O)(=O)c1ccc(C)cc1 (centres unmarked)

>  <Measured result>
4.32

$$$$
>  <Compound>
COc1ccc(-c2cc(NC(=O)[C@H](Cc3c[nH]c4ccccc34)NS(=O)(=O)c3ccc(C)cc3)on2)cc1

>  <Measured result>
85.53

$$$$
>  <Compound>
Cc1ccc(S(=O)(=O)N[C@@H](CC(=O)Nc2ccc([N+](=O)[O-])cc2)C(=O)Nc2ccc(N3CCOCC3)cc2)cc1

>  <Measured result>
53.91

$$$$
>  <Compound>
Cc1ccc(S(=O)(=O)N[C@@H](Cc2c[nH]c3ccccc23)C(=O)Nc2ncc(N3CCOCC3)s2)cc1

>  <Measured result>
72.71

$$$$
>  <Compound>
Cc1ccc(S(=O)(=O)N[C@@H](CC(C)C)C(=O)N2CCOCCOCCOCC2)cc1

>  <Measured result>
8.64

$$$$
>  <Compound>
CC(C)C[C@H](NS(=O)(=O)c1ccc(C(=O)OCc2ccccc2)cc1)C(=O)N1CCOCCOCCOCC1

>  <Measured result>
64.40

$$$$
>  <Compound>
Cc1ccc(S(=O)(=O)N[C@H](CC(C)C)C(=O)N2CCOCCOCCOCC2)cc1

>  <Measured result>
15.11

$$$$
>  <Compound>
COc1ccc(S(=O)(=O)N[C@@H](CC(C)C)C(=O)Nc2ccc(N3CCOCC3)cc2)cc1

>  <Measured result>
12.70

$$$$
>  <Compound>
Cc1ccc(S(=O)(=O)N[C@@H](Cc2cn(C)c3ccccc23)C(=O)Nc2ccc(N3CCOCC3)cc2)cc1

>  <Measured result>
64.95

$$$$
>  <Compound>
O=C(NC12CC3CC(CC(C3)C1)C2)[C@H](Cc1c[nH]c2ccccc12)NS(=O)(=O)c1ccc(Br)cc1

>  <Measured result>
87.1

$$$$
>  <Compound>
Cc1ccc(S(=O)(=O)N[C@@H](Cc2c[nH]c3ccccc23)C(=O)Nc2ccc(N3CCOCC3)c(F)c2)cc1

>  <Measured result>
80.59

$$$$
>  <Compound>
COc1ccc(-c2csc(NC(=O)[C@H](Cc3c[nH]c4ccccc34)NS(=O)(=O)c3ccc(C(F)(F)F)cc3)n2)cc1

>  <Measured result>
84.25

$$$$
>  <Compound>
Cc1ccc(C(=O)N[C@@H](CC(C)C)C(=O)OCc2ccccc2)cc1

>  <Measured result>
75.41

$$$$
>  <Compound>
Cc1ccc(S(=O)(=O)N[C@@H](Cc2ccc(OS(=O)(=O)c3ccc(C)cc3)cc2)C(=O)Nc2ccc(N3CCOCC3)cc2)cc1

>  <Measured result>
35.10

$$$$
>  <Compound>
Cc1ccc(S(=O)(=O)N[C@@H](CC(C)C)C(=O)Nc2nc(-c3ccc(C(F)(F)F)cc3)cs2)cc1

>  <Measured result>
86.36

$$$$
>  <Compound>
CC(C)C[C@H](NC(=O)c1ccc2c(c1)OCO2)C(=O)Nc1ccc(N2CCOCC2)cc1

>  <Measured result>
9.46

$$$$
>  <Compound>
Cc1cc(C)cc(S(=O)(=O)N[C@@H](Cc2c[nH]c3ccccc23)C(=O)Nc2ccc(N3CCOCC3)cc2)c1

>  <Measured result>
77.25

$$$$
>  <Compound>
CC(C)C[C@H](NS(=O)(=O)c1cccc2ccccc12)C(=O)Nc1ccc(N2CCOCC2)cc1

>  <Measured result>
38.92

$$$$
>  <Compound>
CC[C@H](C)[C@H](NS(=O)(=O)c1ccc(C)cc1)C(=O)Nc1ccc(N2CCOCC2)cc1

>  <Measured result>
17.08

$$$$
>  <Compound>
Cc1ccc(S(=O)(=O)N[C@@H](Cc2c[nH]c3ccccc23)C(=O)Nc2nc3ccccc3s2)cc1

>  <Measured result>
20.93

$$$$
>  <Compound>
CC(C)C[C@H](NC(=O)CCS(=O)(=O)c1ccccc1)C(=O)N1CCOCC1

>  <Measured result>
−0.81

$$$$
>  <Compound>
Cc1ccc(S(=O)(=O)N[C@@H](CC(C)C)C(=O)NCCN2CCOCC2)cc1

>  <Measured result>
8.7

$$$$
>  <Compound>
Cc1ccc(S(=O)(=O)N[C@@H](Cc2c[nH]c3ccccc23)C(=O)N2CCOCC2)cc1

>  <Measured result>
23.61

$$$$
